The compounds listed here are annotated with their Plant response rating, Foxtail, Giant.
System: foxtail, giant (giant foxtail, Setaria faberii)
Test: Test A greenhouse herbicide test, pre- and postemergence
Format: in vivo
Conditions: Postemergence, 500 g ai/ha; visual rating after approx. 10 d, 0 to 100 scale (0 no effect, 100 complete control)
From the text: […]
Property Label: Plant response rating, Foxtail, Giant

                                 mol_smiles                               test_system                         property_label  recorded_result
0  Cc1nn(C)c(=O)c(-c2ccc(F)c3ccccc23)c1OC(=O)CC(F)(F)F  foxtail, giant (giant foxtail, Setaria faberii)  Plant response rating, Foxtail, Giant               60
1  CC(=O)Oc1c(C)nn(C)c(=O)c1-c1c([N+](=O)[O-])ccc2ccccc12  foxtail, giant (giant foxtail, Setaria faberii)  Plant response rating, Foxtail, Giant               30
2  Cc1nn(C)c(=O)c(-c2ccc(Cl)c3ccccc23)c1OP(C)(C)=O  foxtail, giant (giant foxtail, Setaria faberii)  Plant response rating, Foxtail, Giant               80
3  Cc1ccc2ccccc2c1-c1c(OS(C)(=O)=O)c(Br)nn(C)c1=O  foxtail, giant (giant foxtail, Setaria faberii)  Plant response rating, Foxtail, Giant               90
4  COC(=O)Cn1nc(C)c(O)c(-c2cccc3ccccc23)c1=O  foxtail, giant (giant foxtail, Setaria faberii)  Plant response rating, Foxtail, Giant               80
5  Cc1nn(C)c(=O)c(-c2c(C)sc3ccc(Cl)cc23)c1O  foxtail, giant (giant foxtail, Setaria faberii)  Plant response rating, Foxtail, Giant              100
6  Cc1cc(C)c2sc(C)c(-c3c(OCC#N)c(C)nn(C)c3=O)c2c1  foxtail, giant (giant foxtail, Setaria faberii)  Plant response rating, Foxtail, Giant               80
7  Cc1ccc2ccccc2c1-c1c(OC(=O)N2CCOCC2)c(Br)nn(C)c1=O  foxtail, giant (giant foxtail, Setaria faberii)  Plant response rating, Foxtail, Giant               10
8  COC(=O)Oc1c(C)nn(C)c(=O)c1-c1c([N+](=O)[O-])ccc2ccccc12  foxtail, giant (giant foxtail, Setaria faberii)  Plant response rating, Foxtail, Giant               40
